system: Panc 05.04 cells (pancreatic cancer cells; Q699H and K700E mutations in SF3B1); assay: Cell viability assay (CellTiter-Glo, 72 hr), Panc 05.04 cells; assay type: cell-based; details: Panc 05.04 cells (mutant SF3B1); maximum achievable response in tested dose range, negative value = cellular lethality; read-out: Panc 05.04 (mt SF3B1 cells) Emax (%)
measurement-type: Emax (%)
# output: bare number, implied unit %

Below, 5 molecules whose answers are already recorded.
- smiles-repr: "CC[C@H](O)[C@@H](C)[C@H]1O[C@@H]1C[C@@](C)(O)/C=C/C=C(\\C)[C@H]1OC(=O)C[C@H](O)CC[C@@](C)(OC)[C@@H](OC(=O)N(C)CCN(C)C)/C=C/[C@@H]1C"
  system-name: "Panc 05.04 cells (pancreatic cancer cells; Q699H and K700E mutations in SF3B1)"
  readout-units: "%"
  Emax: -64.4
- smiles-repr: "CC(=O)O[C@H]1/C=C/[C@H](C)[C@@H](/C(C)=C/C=C/[C@@H](C)CO)OC(=O)C[C@H](O)CC[C@@]1(C)O"
  system-name: "Panc 05.04 cells (pancreatic cancer cells; Q699H and K700E mutations in SF3B1)"
  readout-units: "%"
  Emax: 47.5
- smiles-repr: "C/C(=C\\C=C\\[C@@H](C)COC(=O)N1CCC[C@H]1CO)[C@H]1OC(=O)C[C@H](O)CC[C@@](C)(O)[C@@H](OC(=O)N2CCN(C)CC2)/C=C/[C@@H]1C"
  system-name: "Panc 05.04 cells (pancreatic cancer cells; Q699H and K700E mutations in SF3B1)"
  readout-units: "%"
  Emax: -77.2
- smiles-repr: "C/C(=C\\C=C\\[C@@H](C)COC(=O)N1CCCC1)[C@H]1OC(=O)CCCCC[C@@H](OC(=O)N2CCN(C)CC2)/C=C/[C@@H]1C"
  system-name: "Panc 05.04 cells (pancreatic cancer cells; Q699H and K700E mutations in SF3B1)"
  readout-units: "%"
  Emax: -90.5
- smiles-repr: "C/C(=C\\C=C\\[C@@H](C)CN(C)C(=O)N1CCCC1)[C@H]1OC(=O)C[C@H](O)CC[C@@](C)(O)[C@@H](OC(=O)N2CCN(C3CCCCCC3)CC2)/C=C/[C@@H]1C"
  system-name: "Panc 05.04 cells (pancreatic cancer cells; Q699H and K700E mutations in SF3B1)"
  readout-units: "%"
  Emax: -94.5

Assay Panc 05.04 cells (pancreatic cancer cells; Q699H and K700E mutations in SF3B1), sample CC[C@H](O)[C@@H](C)C(=O)OC[C@H](C)/C=C/C=C(\C)[C@H]1OC(=O)C[C@H](O)CC[C@@](C)(O)[C@@H](OC(C)=O)/C=C/[C@@H]1C , Emax read: -90.5

Assay Panc 05.04 cells (pancreatic cancer cells; Q699H and K700E mutations in SF3B1), sample C/C(=C\C=C\[C@@H](C)COC(=O)N1CC=CC1)[C@H]1OC(=O)C[C@H](O)CC[C@@](C)(O)[C@@H](OC(=O)N2CCN(C3CCCCCC3)CC2)/C=C/[C@@H]1C , Emax read: -89.8

Assay Panc 05.04 cells (pancreatic cancer cells; Q699H and K700E mutations in SF3B1), sample CC(=O)O[C@H]1/C=C/[C@H](C)[C@@H](/C(C)=C/C=C/Cc2cccnc2)OC(=O)C[C@H](O)CC[C@@]1(C)O , Emax read: 84.5

Assay Panc 05.04 cells (pancreatic cancer cells; Q699H and K700E mutations in SF3B1), sample C/C(=C\C=C\[C@@H](C)CCC(=O)N1CCCC1)[C@H]1OC(=O)C[C@H](O)CC[C@@](C)(O)[C@@H](OC(=O)N2CCN(C3CCCCCC3)CC2)/C=C/[C@@H]1C , Emax read: -86.9

Assay Panc 05.04 cells (pancreatic cancer cells; Q699H and K700E mutations in SF3B1), sample C/C(=C\C=C\[C@@H](C)c1ccccn1)[C@H]1OC(=O)C[C@H](O)CC[C@@](C)(O)[C@@H](OC(=O)N2CC3(C2)CN(C2CCCCCC2)C3)/C=C/[C@@H]1C , Emax read: -41.9

Assay Panc 05.04 cells (pancreatic cancer cells; Q699H and K700E mutations in SF3B1), sample C/C(=C\C=C\[C@@H](C)COC(=O)N1CC[C@@H](O)C1)[C@H]1OC(=O)CCCCC[C@@H](OC(=O)N2CCN(C3CCCCCC3)CC2)/C=C/[C@@H]1C , Emax read: -81.6

Assay Panc 05.04 cells (pancreatic cancer cells; Q699H and K700E mutations in SF3B1), sample C/C(=C\C=C\[C@@H](C)c1ccccn1)[C@H]1OC(=O)C[C@H](O)CC[C@@](C)(O)[C@@H](OC(=O)N2CCC(N3CC4CCC(C3)C4(F)F)CC2)/C=C/[C@@H]1C , Emax read: -90.3

src = patent US11926619B2
